Test: Growth inhibition of human RXF393 cells at 10 uM after 48 hrs
Format: functional
Details: RXF 393, 48 h, read-out: GI
Below: a set of entries, each annotated with reported inhibition of growth at 10 µM.
Respond numerically; units are % and should not be typed.

Nc1nc2c(c(-c3ccc(Cl)cc3)n1)CCC/C2=C\c1ccc(Cl)cc1 = 65.5
COc1ccc(/C=C2\CCCc3c2nc(N)nc3-c2ccc(OC)c(OC)c2)cc1OC = 79.1
Clc1ccc(/C=C2\CCCC3=C(c4ccc(Cl)cc4)Nc4ccccc4N=C32)cc1 = 34.7

Please give the measured inhibition of growth at 10 µM for this compound: "COc1cc(/C=C2\CCCc3c2nc(C)nc3-c2cc(OC)c(OC)c(OC)c2)cc(OC)c1OC" 77.4
